pIC50: −log10 of the molar value.
Several publications report pIC50 on Prostaglandin G/H synthase 1 (Homo sapiens, UniProt P23219); those values are gathered here.
Sequence (P23219 whole entry): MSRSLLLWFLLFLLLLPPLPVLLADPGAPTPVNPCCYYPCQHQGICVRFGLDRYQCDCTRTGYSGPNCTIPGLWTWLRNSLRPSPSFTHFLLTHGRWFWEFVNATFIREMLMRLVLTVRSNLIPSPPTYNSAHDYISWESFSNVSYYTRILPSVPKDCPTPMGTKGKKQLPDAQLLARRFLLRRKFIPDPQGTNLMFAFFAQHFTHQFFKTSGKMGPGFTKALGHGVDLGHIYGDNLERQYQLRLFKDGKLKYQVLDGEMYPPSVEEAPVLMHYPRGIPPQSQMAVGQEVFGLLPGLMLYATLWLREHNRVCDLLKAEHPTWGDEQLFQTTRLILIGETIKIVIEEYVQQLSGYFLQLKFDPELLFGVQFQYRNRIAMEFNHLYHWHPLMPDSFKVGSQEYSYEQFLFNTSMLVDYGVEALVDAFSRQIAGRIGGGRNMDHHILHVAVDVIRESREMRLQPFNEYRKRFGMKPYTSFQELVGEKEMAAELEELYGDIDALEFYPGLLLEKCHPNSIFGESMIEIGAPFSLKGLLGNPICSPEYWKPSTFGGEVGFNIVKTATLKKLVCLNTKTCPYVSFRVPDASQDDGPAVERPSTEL
Attribute Measured: pIC50

Compound: O=C(O)C1=Cc2cc(Cl)c(OCC3CCCC3)c(Cl)c2OC1C(F)(F)F (centres undefined)
Measurement Target: Prostaglandin G/H synthase 1 (Homo sapiens, UniProt P23219)
Attribute Measured: pIC50
Reported Value: > 6.85
//
Compound: Cc1cccc(Cl)c1-c1nc(C(F)(F)F)cn1-c1ccc(S(C)(=O)=O)cc1
Measurement Target: Prostaglandin G/H synthase 1 (Homo sapiens, UniProt P23219)
Attribute Measured: pIC50
Reported Value: < 4.00
//
Compound: CC1(C)OC(=O)C(Oc2ncccn2)=C1c1ccc(S(C)(=O)=O)cc1
Measurement Target: Prostaglandin G/H synthase 1 (Homo sapiens, UniProt P23219)
Attribute Measured: pIC50
Reported Value: < 5.00
//
Compound: CC(C)(O)c1cc(-c2ccc(F)cc2)c(-c2ccc(S(N)(=O)=O)cc2)s1
Measurement Target: Prostaglandin G/H synthase 1 (Homo sapiens, UniProt P23219)
Attribute Measured: pIC50
Reported Value: < 4.30
//
Compound: CS(=O)(=O)c1ccc(-c2csc(N/N=C/c3ccc(O)cc3O)n2)cc1
Measurement Target: Prostaglandin G/H synthase 1 (Homo sapiens, UniProt P23219)
Attribute Measured: pIC50
Reported Value: < 3.00
//
Compound: Cc1nc(C2CCCCCC2)c(-c2ccc(S(C)(=O)=O)cc2)o1
Measurement Target: Prostaglandin G/H synthase 1 (Homo sapiens, UniProt P23219)
Attribute Measured: pIC50
Reported Value: < 4.00
//
Compound: CC/C=N/c1c(C#N)c2n(c1C(=O)Nc1ccccc1)CCC2
Measurement Target: Prostaglandin G/H synthase 1 (Homo sapiens, UniProt P23219)
Attribute Measured: pIC50
Reported Value: < 4.00
//
Compound: CS(=O)(=O)c1ccc(-c2nn(CC(=O)Nc3ccccc3)c(C(F)(F)F)c2-c2ccc(F)cc2)cc1
Measurement Target: Prostaglandin G/H synthase 1 (Homo sapiens, UniProt P23219)
Attribute Measured: pIC50
Reported Value: < 4.00
//
Compound: C=C1CCC[C@]2(C)Cc3occ(C)c3C[C@@H]12
Measurement Target: Prostaglandin G/H synthase 1 (Homo sapiens, UniProt P23219)
Attribute Measured: pIC50
Reported Value: < 3.70
